- assay-info: drug combination growth inhibition, ovarian cancer – cell-based, oncology-focused library, rucaparib conditional, profiling panel (AID 1508598)
- assay-setup: patient-derived ovarian cancer cells, CellTiter-Glo viability, 144 h; at 0.000305 µM; OCI-P5x cells; without rucaparib; active compounds read low
measured-endpoint: viability (%)
Numbers only; they are read as %.

Observe how each entry below is paired with its result.
CN1CCN(c2nc(C3=C(c4c[nH]c5ccccc45)C(=O)NC3=O)c3ccccc3n2)CC1 : 83.9
O=C(O)c1ccc2c(c1)nc(Nc1cccc(Cl)c1)c1ccncc12 : 105
O=C(Nc1ccc(OC(F)(F)F)cc1)c1sccc1NCc1ccnc2ccccc12 : 88.5
CN1CCN(c2cccc(Nc3nc4c(-c5ccc(S(C)(=O)=O)cc5)cccn4n3)c2)CC1 : 90.7
Nc1cccc2c1C(=O)N(C1CCC(=O)NC1=O)C2=O (stereo not given) : 127
CN1CCC(CNc2ccc3ncc(-c4cccc(OC(F)(F)F)c4)n3n2)CC1 : 92.4
C/C(=C\C(=O)Nc1ccccc1C(=O)O)c1ccc2ccccc2c1 : 103
Cn1cnc2c(F)c(Nc3ccc(Br)cc3Cl)c(C(=O)NOCCO)cc21 : 84.9
O=C(O)c1ccc(O)c2ncccc12 : 89.3
CC(C)[C@H](C(=O)Nc1ccc(C(=O)NO)cc1)c1ccccc1 : 114

Fill in the blank: the reported viability of Nc1ccn([C@@H]2O[C@H](CO)[C@@H](O)C2(F)F)c(=O)n1 is ____.
32.9

What would you report for CS(=O)(=O)c1cccc(CNc2nc(Nc3ccc4c(c3)CCC(=O)N4)ncc2C(F)(F)F)c1 ?
101

What would you report for COc1ccc(C2=NC(c3ccc(Cl)cc3)C(c3ccc(Cl)cc3)N2C(=O)N2CCNC(=O)C2)c(OC(C)C)c1 (stereo not given) ?
104

What would you report for C[C@@H](Oc1cc(-n2cnc3ccc(CN4CCN(C)CC4)cc32)sc1C(N)=O)c1ccccc1C(F)(F)F ?
33.3

What would you report for CNC(=O)c1cc(Oc2ccc(NC(=O)Nc3ccc(Cl)c(C(F)(F)F)c3)c(F)c2)ccn1 ?
104

What would you report for C#Cc1cccc(Nc2ncnc3cc(OC)c(OCCCCCCC(=O)NO)cc23)c1 ?
96.4

What would you report for COCCOc1nc(-c2ccc(Cl)c(Cl)c2)n(-c2ccc(NC(=O)CCl)cc2)n1 ?
105

###

- assay-info: viability loss in pontine glioma line – cell-based, SU-DIPG-IV, MIPE4.0, CellTiter-Glo, qHTS, dose response (AID 1347063);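 note: compound exposure lasted 48 hours before the viability readout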
- assay-setup: CellTiter-Glo ATP luminescence
Records with an inconclusive call do not appear. Calls of active or inactive are those of the source. The limit is not given here; nearly all actives have AC50 up to about 30 µM.
API: response.call in active, inactive

CC1(C)CC(=O)c2c(C(F)(F)F)nn(-c3ccc(C(N)=O)c(NC4CCC(O)CC4)c3)c2C1 (stereo unspecified) : active
CCCCCCCCCCCCCCCC(=O)OC[C@@H](NC(=O)C(Cl)Cl)[C@H](O)c1ccc([N+](=O)[O-])cc1 : inactive
Cc1ccc(S(=O)(=O)N[C@@H](Cc2ccccc2)C(=O)CCl)cc1 : active
CC1(C)Cc2c(-c3ccccc3)c(-c3ccc(Cl)cc3)c(CC(=O)O)n2C1 : active
COc1ccc(-c2oc3c(CC=C(C)C)c(O)cc(O)c3c(=O)c2O)cc1 : inactive
CNC(=O)c1cc(Oc2ccc(NC(=O)Nc3ccc(Cl)c(C(F)(F)F)c3)c(F)c2)ccn1 : active
CCN(CC)Cc1ccc2cc(COC(=O)Nc3ccc(C(=O)NO)cc3)ccc2c1 : active
O=C(Nc1ccccc1-c1cn2c(CN3CCNCC3)csc2n1)c1cnc2ccccc2n1 : active

Test call for this compound, please: CC(C)C[C@@H](N)[C@H](O)C(=O)N[C@H](C(=O)N[C@H](C(=O)N[C@@H](CC(=O)O)C(=O)O)C(C)C)C(C)C
inactive

What would you report for CCC(=O)N1CCN(c2ccc(-n3c(=O)ccc4cnc5ccc(-c6cnc7ccccc7c6)cc5c43)cc2C(F)(F)F)CC1 ?
active
